Please respond with reported IC50 for every item in the list.
test system: Vero; experiment: Cytotoxicity against African green monkey Vero cells assessed as reduction in cell viability incubated for 48 hrs by neutral red dye based assay; design: species or system Chlorocebus sabaeus; conditions: Chlorocebus sabaeus, Vero, 48 h

CCCCCCCCCCCCCCC1(O)C(C)=C(C)C2=[N+](CC#N)CCCN21 (centres undefined) ... > 52 µM
CCCCCCCCCCCCCCC1(O)C(C)=C(C)C2=[N+](Cc3cnnn3Cc3ccccc3)CCCN21 (centres undefined) ... > 40 µM

Each compound below has a recorded value; state its IC50.
1. CCCCCCCCCCCCCCC1(O)C(C)=C(C)C2=[N+](Cc3cc(OC)c(OC)c(OC)c3)CCCN21 (centres undefined)
2. CCCCCCCCCCCCCCC1(O)C(C)=C(C)C2=[N+](C)c3ccccc3CN21 (centres undefined)

*A*
1. > 40 µM
2. > 45 µM

---

test system: Aspergillus fumigatus; experiment: Fungicidal activity against Aspergillus fumigatus ATCC 90906 assessed as fungal growth inhibition incubated for 72 hrs by alamar blue assay; assay type: functional; settings: Aspergillus fumigatus, ATCC 90906, 72 h, read-out: MFC
REPORTED_PROPERTY: MFC (µM)
Numbers only, in µM.

Some compounds with recorded MFC:
C[C@@H]1[C@H](O)[C@@H](C)/C=C/C=C/C=C/C=C/C=C/C=C/C=C/[C@H](O[C@@H]2O[C@H](C)[C@@H](O)[C@H](N)[C@@H]2O)C[C@@H]2O[C@](O)(C[C@@H](O)C[C@@H](O)[C@H](O)CC[C@@H](O)C[C@@H](O)CC(=O)O[C@H]1C)C[C@H](O)[C@H]2C(=O)O ... 4
CCCCCCCCCCCCCCC1(O)C(C)=C(C)C2=[N+](Cc3ccccc3)CCCN21 (centres undefined) ... 4.7
CCCCCCCCCCCCCCC1(O)C(C)=C(C)C2=[N+](Cc3cnnn3Cc3ccccc3)CCCN21 (centres undefined) ... 6.8

Each compound below has a recorded value; state its MFC.
1. CCCCCCCCCCCCCCc1c(C)c(C)cn1CCCNC
2. CCCCCCCCCCCCCCC1(O)C(C)=C(C)C2=[N+](Cc3cccc(OC)c3)CCCN21 (centres undefined)
3. CCCCCCCCCCCCCCC1(O)C(C)=C(C)C2=[N+](Cc3ccc(Cl)cc3)CCCN21 (centres undefined)
4. C=CC[N+]1=C2C(C)=C(C)C(O)(CCCCCCCCCCCCCC)N2CCC1 (centres undefined)
5. CCCCCCCCCCCCCCC1(O)C=CC2=[N+](C)CCCN21 (centres undefined)
6. CCCCCCCCCCCCCCC1(O)C(C)=C(C)C2=[N+](C)CCCN21 (centres undefined)

*A*
[23, 3, 4.4, 17, 4.4, 5]
